assay procedure: Microsomal stability in rat liver microsomes assessed as intrinsic clearance at 1 uM incubated for 60 mins in presence of NADPH regenerating system by LC-MS/MS analysis
Type: ADME, Microsome
stated conditions: read-out: CLH
property label: microsomal CLint at 1 µM

>>> reported_value("N#CCC(=O)N1CC2(CCC(c3cccc4nc(NC(=O)C5CC5)nn34)CC2)C1")
"< 9.6 µL/min/mg"

// query Requested field: microsomal CLint at 1 µM. Item: O=C(Nc1nc2cccc(-c3ccc(CN4CCS(=O)(=O)CC4)cc3)n2n1)C1CC1 [FILGOTINIB]
// result < 9.6 µL/min/mg

// query Try this compound too: "O=C(Nc1nc2cccc([C@H]3CC[C@@H](NC(=O)[C@@H]4CC4(F)F)CC3)n2n1)C1CC1"
// result 16.9 µL/min/mg

###

system name: UniProt:P29597
Sequence (P29597 whole entry): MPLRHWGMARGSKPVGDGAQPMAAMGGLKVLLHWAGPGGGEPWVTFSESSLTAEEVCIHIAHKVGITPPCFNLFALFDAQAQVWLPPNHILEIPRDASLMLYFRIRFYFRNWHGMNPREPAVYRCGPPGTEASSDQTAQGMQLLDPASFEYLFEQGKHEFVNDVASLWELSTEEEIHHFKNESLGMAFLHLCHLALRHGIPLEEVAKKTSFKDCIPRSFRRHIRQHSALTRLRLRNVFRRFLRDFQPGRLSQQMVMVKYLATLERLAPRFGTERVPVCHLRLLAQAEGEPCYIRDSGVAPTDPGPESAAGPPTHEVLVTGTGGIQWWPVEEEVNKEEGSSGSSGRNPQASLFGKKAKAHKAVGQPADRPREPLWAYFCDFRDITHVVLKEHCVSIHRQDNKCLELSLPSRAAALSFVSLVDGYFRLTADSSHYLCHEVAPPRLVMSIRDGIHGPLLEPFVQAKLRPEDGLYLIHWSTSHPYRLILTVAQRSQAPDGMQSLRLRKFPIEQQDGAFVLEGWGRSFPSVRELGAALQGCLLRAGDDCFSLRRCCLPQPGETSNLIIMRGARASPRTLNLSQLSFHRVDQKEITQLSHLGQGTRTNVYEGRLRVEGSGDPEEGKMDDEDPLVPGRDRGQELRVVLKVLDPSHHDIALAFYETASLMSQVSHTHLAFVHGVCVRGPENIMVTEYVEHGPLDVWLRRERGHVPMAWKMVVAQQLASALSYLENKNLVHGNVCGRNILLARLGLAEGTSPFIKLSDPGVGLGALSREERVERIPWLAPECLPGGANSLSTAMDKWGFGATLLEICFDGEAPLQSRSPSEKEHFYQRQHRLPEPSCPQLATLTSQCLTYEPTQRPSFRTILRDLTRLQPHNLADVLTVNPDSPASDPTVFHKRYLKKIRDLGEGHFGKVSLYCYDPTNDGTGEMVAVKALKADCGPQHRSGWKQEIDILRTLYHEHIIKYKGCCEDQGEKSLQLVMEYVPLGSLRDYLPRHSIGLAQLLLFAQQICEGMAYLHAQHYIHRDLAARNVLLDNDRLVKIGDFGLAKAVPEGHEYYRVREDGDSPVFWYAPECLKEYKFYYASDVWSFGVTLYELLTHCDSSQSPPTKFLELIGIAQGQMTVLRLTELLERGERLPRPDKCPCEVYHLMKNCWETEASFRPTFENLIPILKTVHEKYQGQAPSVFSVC
assay procedure: Inhibition of recombinant human TYK2 using GGMEDIYFEFMGGKKK as substrate incubated for 40 mins in presence of Mg/ATP mixture by [gamma p33]-ATP based scintillation counting method
pIC50: −log10 of the molar value.
property label: pIC50

>>> reported_value("O=C(Nc1nc2cccc(C3CCC4(CC3)CCN(C(=O)[C@@H]3CC3(F)F)CC4)n2n1)C1CC1")
7.59
>>> reported_value("O=C(Nc1nc2cccc([C@H]3CC[C@@H](NC(=O)[C@H]4CC4(F)F)CC3)n2n1)C1CC1")
6.34
>>> reported_value("N#CC1(C(=O)N2CC3(CCC(c4cccc5nc(NC(=O)C6CC6)nn45)CC3)C2)CC1")
7.74
>>> reported_value("O=C(Nc1nc2cccc([C@H]3CC[C@H](NC(=O)[C@H]4CC4(F)F)CC3)n2n1)C1CC1")
5.24
>>> reported_value("O=C(Nc1nc2cccc([C@H]3CC[C@H](NC(=O)[C@@H]4CC4(F)F)CC3)n2n1)C1CC1")
5.76

A = O=C(Nc1nc2cccc(C3=CC[C@@H](NC(=O)[C@@H]4CC4(F)F)CC3)n2n1)C1CC1
B = O=C(Nc1nc2cccc(C3=CC[C@H](NC(=O)[C@@H]4CC4(F)F)CC3)n2n1)C1CC1
C = O=C(Nc1nc2cccc(C3CCC4(CC3)CCN(C(=O)CC(F)(F)F)CC4)n2n1)C1CC1
D = N#CCC(=O)N1CCC2(CCC(c3cccc4nc(NC(=O)C5CC5)nn34)CC2)CC1
// query hey, can you rank those compounds up there by pIC50? biggest number first please Provide the labels, sequenced as the question asks.
// result D, B, C, A
(D: 7.59, B: 7.11, C: 6.81, A: 5.86)

A = O=C(Nc1nc2cccc(C3=CC[C@@H](NC(=O)[C@H]4CC4(F)F)CC3)n2n1)C1CC1
B = O=C(Nc1nc2cccc(C3CCC4(CC3)CCN(C(=O)[C@@H]3CC3(F)F)C4)n2n1)C1CC1 (stereo partly drawn)
// query // compare: A vs B , metric pIC50, want the smaller Choose, then provide that item's label.
// result A

A = O=C(Nc1nc2cccc([C@H]3CCC4(C3)CN(C(=O)[C@@H]3CC3(F)F)C4)n2n1)C1CC1
B = N#CCCN1CC2(CCC(c3cccc4nc(NC(=O)C5CC5)nn34)CC2)C1
// query Of A and B , which carries the smaller reported pIC50 figure? Label of pick, please.
// result A
